- measurement-description: Terminal plasma and brain concentrations in AC-MES studies (UHPLC-MS/MS)
- Type: in vivo, mouse
- reported-conditions: male, CF-1, mouse, in vivo, po, 10 mg/kg, Study 4B; Compound A 10 mg/kg single oral dose; read-out: B/P Ratio (brain to plasma ratio)
quantity: Kp at 30 min
One number for each entry.

Prompt: Reported Kp at 30 min for Cc1cc(N2CCc3cc(F)ccc3C2)cc(C)c1NC(=O)CC(C)(C)C [Compound A] : what is it?
Response: 1.64

---

- measurement-description: Terminal plasma and brain concentrations in AC-MES studies (UHPLC-MS/MS)
- Assay type: in vivo, mouse
- reported-conditions: male, CF-1, mouse, in vivo, po, 10 mg/kg, Study 4A, Compound A 10 mg/kg PO, 0.5 h; read-out: mean plasma concentration
quantity: concentration at 0.5 h
A bare number is not enough; add the unit after it.

Prompt: Reported concentration at 0.5 h for Cc1cc(N2CCc3cc(F)ccc3C2)cc(C)c1NC(=O)CC(C)(C)C : what is it?
Response: 370 nM

---

- measurement-description: Terminal plasma and brain concentrations in AC-MES studies (UHPLC-MS/MS)
- Type: in vivo, mouse
- reported-conditions: male, CF-1, mouse, in vivo, po, 10 mg/kg, Study 2B, Compound A 10 mg/kg PO, 0.5 h; read-out: Mean Plasma
quantity: concentration at 0.5 h (nM)
One number for each entry, in nM.

Prompt: Reported concentration at 0.5 h for Cc1cc(N2CCc3cc(F)ccc3C2)cc(C)c1NC(=O)CC(C)(C)C : what is it?
Response: 553
